- target: recombinant FLT1 active protein (Homo sapiens, UniProt P17948)
- Sequence (P17948 27-1338): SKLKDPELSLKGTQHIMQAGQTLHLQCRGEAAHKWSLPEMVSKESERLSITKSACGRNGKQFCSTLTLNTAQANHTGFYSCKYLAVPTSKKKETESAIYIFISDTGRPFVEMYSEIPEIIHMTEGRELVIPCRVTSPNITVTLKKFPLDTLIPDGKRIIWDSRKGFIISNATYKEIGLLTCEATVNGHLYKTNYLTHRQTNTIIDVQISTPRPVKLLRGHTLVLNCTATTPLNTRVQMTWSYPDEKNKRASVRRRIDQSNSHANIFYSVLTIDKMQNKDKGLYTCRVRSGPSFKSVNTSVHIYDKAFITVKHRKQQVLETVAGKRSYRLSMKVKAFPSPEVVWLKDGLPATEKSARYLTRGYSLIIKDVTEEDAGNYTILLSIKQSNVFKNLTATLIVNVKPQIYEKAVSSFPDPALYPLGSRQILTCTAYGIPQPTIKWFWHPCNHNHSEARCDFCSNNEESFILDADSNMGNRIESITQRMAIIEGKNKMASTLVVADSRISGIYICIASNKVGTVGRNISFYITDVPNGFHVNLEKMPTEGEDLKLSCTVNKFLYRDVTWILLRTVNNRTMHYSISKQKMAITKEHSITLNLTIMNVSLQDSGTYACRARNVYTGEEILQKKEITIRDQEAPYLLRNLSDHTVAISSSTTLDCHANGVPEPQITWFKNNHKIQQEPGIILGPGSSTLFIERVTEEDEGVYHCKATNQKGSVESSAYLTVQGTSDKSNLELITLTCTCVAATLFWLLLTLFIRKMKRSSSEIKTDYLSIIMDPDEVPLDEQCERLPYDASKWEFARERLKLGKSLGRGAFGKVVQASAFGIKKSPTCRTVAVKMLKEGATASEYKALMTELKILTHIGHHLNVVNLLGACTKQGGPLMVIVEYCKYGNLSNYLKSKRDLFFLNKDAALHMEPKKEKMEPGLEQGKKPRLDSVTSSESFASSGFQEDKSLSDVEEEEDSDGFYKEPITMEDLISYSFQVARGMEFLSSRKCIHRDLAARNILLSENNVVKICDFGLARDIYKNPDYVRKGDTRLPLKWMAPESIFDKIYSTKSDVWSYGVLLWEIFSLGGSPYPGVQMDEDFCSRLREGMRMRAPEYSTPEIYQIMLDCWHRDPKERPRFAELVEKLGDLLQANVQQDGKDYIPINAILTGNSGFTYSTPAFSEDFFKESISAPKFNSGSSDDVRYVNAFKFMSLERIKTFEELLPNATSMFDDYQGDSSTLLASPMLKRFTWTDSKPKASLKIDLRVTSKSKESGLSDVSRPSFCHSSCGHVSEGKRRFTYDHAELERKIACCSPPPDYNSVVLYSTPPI
- assay.notes: In vitro filter assay for FLT1 kinase activity
- Format: biochemical
- condition.set: 30 min preincubation at room temperature, kinase reaction 20 min at 30° C., 100 μM ATP, 250 μM IGF-1Rtide, triplicate
measure.name: IC50

As a guide, the following entries are already answered.
molecule	result
O=S(=O)(/C=C/c1ccc(I)cc1)CS(=O)(=O)/C=C/c1ccc(I)cc1 [Example 10, bis((E)-4-Iodostyrylsulfonyl)methane]	> 10 µM
O=S(=O)(/C=C/c1ccc(F)cc1)CS(=O)(=O)/C=C/c1ccc(F)cc1 [Example 11, bis((E)-4-Fluorostyrylsulfonyl)methane]	> 100 µM
O=S(=O)(/C=C/c1ccccc1)CS(=O)(=O)/C=C/c1ccccc1 [Example 9, bis((E)-Styrylsulfonyl)methane]	> 100 µM
O=S(=O)(/C=C/c1ccc(F)cc1F)CS(=O)(=O)/C=C/c1ccc(F)cc1F	2.23 µM

Challenge: Using the record for COc1cccc(OC)c1/C=C/S(=O)(=O)CS(=O)(=O)/C=C/c1c(OC)cccc1OC , state its measured IC50.
Response given: 12.8 µM

Challenge: Recall and state the measured IC50 for COc1cc(/C=C/S(=O)(=O)CS(=O)(=O)/C=C/c2ccc(O)c(OC)c2)ccc1O .
Response given: 3.89 µM

* * *

- target: recombinant FLT1 active protein (Homo sapiens)
- assay.notes: In vitro filter assay for FLT1 kinase activity
- condition.set: 30 min preincubation at room temperature, kinase reaction 20 min at 30° C., 100 μM ATP, 250 μM IGF-1Rtide, triplicate
measure.name: log10 IC50 (log10 of the value in µM)
Use the decimal logarithm of IC50 (µM).

Sample records with log10 IC50:
molecule	target	numeric.result
O=S(=O)(/C=C/c1ccc(Br)cc1)CS(=O)(=O)/C=C/c1ccc(Br)cc1 [Example 7, bis((E)-4-Bromostyrylsulfonyl)methane]	recombinant FLT1 active protein (Homo sapiens)	-0.50
N#Cc1ccc(/C=C/S(=O)(=O)CS(=O)(=O)/C=C/c2ccc(C#N)cc2F)c(F)c1 [Example 3]	recombinant FLT1 active protein (Homo sapiens)	-0.79

Challenge: Please supply the value of reported log10 IC50 for the item COc1cc(OC)c(/C=C/S(=O)(=O)CS(=O)(=O)/C=C/c2c(OC)cc(OC)cc2OC)c(OC)c1 [Example 2]
Response given: -0.55

Challenge: Give reported log10 IC50 value for COc1cc(/C=C/C(=O)CC(=O)/C=C/c2ccc(O)c(OC)c2)ccc1O [curcumin, reference compound]
Response given: 1.54

Challenge: Let me know recorded log10 IC50 for O=S(=O)(/C=C/c1ccsc1)CS(=O)(=O)/C=C/c1ccsc1 [Example 8] , thanks.
Response given: 1.05

Challenge: Identify the reported log10 IC50 for the following entry. O=S(=O)(/C=C/c1ccc(Cl)cc1)CS(=O)(=O)/C=C/c1ccc(Cl)cc1 [Example 6, bis((E)-4-Chlorostyrylsulfonyl)methane]
Response given: 1.71
